Tested on: K. pneumoniae ATCC BAA-1144
procedure.text: Antimicrobial susceptibility assay (broth microdilution MIC)
Assay type: cell-based
reported.conditions: Klebsiella pneumoniae, ATCCBAA1144; K. pneumoniae ATCC BAA-1144 (Gram-negative, expressing AmpC β-lactamase); 18 h at 37°C; growth inhibited by ≥90%; read-out: MIC
quantity: MIC

Form: Entry = CC1(C)S[C@@H]2[C@H](NC(=O)[C@H](N)c3ccccc3)C(=O)N2[C@H]1C(=O)O [Ampicillin, reference compound] | System = K. pneumoniae ATCC BAA-1144 | MIC = ____
> 96 µg/mL

Form: Entry = "COc1ccc2cc3[n+](cc2c1OCCCBr)CCc1cc2c(cc1-3)OCO2" | System = K. pneumoniae ATCC BAA-1144 | MIC = ____
> 384 µg/mL

Form: Entry = "COc1ccc2cc3[n+](cc2c1OCCCOc1ccccc1C)CCc1cc2c(cc1-3)OCO2" | System = K. pneumoniae ATCC BAA-1144 | MIC = ____
64 µg/mL

Form: Entry = "COc1ccc(OCCCOc2c(OC)ccc3cc4[n+](cc23)CCc2cc3c(cc2-4)OCO3)cc1" | System = K. pneumoniae ATCC BAA-1144 | MIC = ____
128 µg/mL

Form: Entry = "COc1ccc2cc3[n+](cc2c1OCCCOc1ccc(Cl)cc1)CCc1cc2c(cc1-3)OCO2" | System = K. pneumoniae ATCC BAA-1144 | MIC = ____
64 µg/mL

Form: Entry = "COc1ccc2cc3[n+](cc2c1OCCCCOc1ccccc1)CCc1cc2c(cc1-3)OCO2" | System = K. pneumoniae ATCC BAA-1144 | MIC = ____
128 µg/mL

Form: Entry = "COc1ccc2cc3[n+](cc2c1OCCCOc1ccc([N+](=O)[O-])cc1)CCc1cc2c(cc1-3)OCO2" | System = K. pneumoniae ATCC BAA-1144 | MIC = ____
64 µg/mL

Form: Entry = COc1ccc2cc3[n+](cc2c1OC)CCc1cc2c(cc1-3)OCO2 [Berberine, Berberine chloride] | System = K. pneumoniae ATCC BAA-1144 | MIC = ____
> 500 µg/mL

Form: Entry = "COc1ccc2cc3[n+](cc2c1OCCCOc1ccccc1)CCc1cc2c(cc1-3)OCO2" | System = K. pneumoniae ATCC BAA-1144 | MIC = ____
128 µg/mL

* * *

Provide the reported MIC of each item.
Test system: S. aureus ATCC 29213
procedure.text: Antimicrobial susceptibility assay (broth microdilution MIC)
Format: cell-based
reported.conditions: Staphylococcus aureus, ATCC29213; S. aureus ATCC 29213; cation-adjusted Mueller Hinton broth, 18 h at 37°C; growth inhibited by ≥90%; read-out: MIC
Report as a plain number; the unit µg/mL is understood.

Entry under review: "COc1ccc2cc3[n+](cc2c1OCCCOc1ccc([N+](=O)[O-])cc1)CCc1cc2c(cc1-3)OCO2" . Reported MIC?
2

Entry under review: "COc1ccc2cc3[n+](cc2c1OCCCCOc1ccccc1)CCc1cc2c(cc1-3)OCO2" . Reported MIC?
4

Entry under review: "COc1ccc2cc3[n+](cc2c1OCCCBr)CCc1cc2c(cc1-3)OCO2" . Reported MIC?
112

Entry under review: "COc1ccc(OCCCOc2c(OC)ccc3cc4[n+](cc23)CCc2cc3c(cc2-4)OCO3)cc1" . Reported MIC?
8

Entry under review: COc1ccc2cc3[n+](cc2c1OC)CCc1cc2c(cc1-3)OCO2 [Berberine, Berberine chloride] . Reported MIC?
128

Entry under review: "COc1ccc2cc3[n+](cc2c1OCCCOc1ccccc1)CCc1cc2c(cc1-3)OCO2" . Reported MIC?
4

Entry under review: "COc1ccc2cc3[n+](cc2c1OCCCOc1ccccc1C)CCc1cc2c(cc1-3)OCO2" . Reported MIC?
4

Entry under review: CC1(C)S[C@@H]2[C@H](NC(=O)[C@H](N)c3ccccc3)C(=O)N2[C@H]1C(=O)O [Ampicillin, reference compound] . Reported MIC?
1.5

Entry under review: "COc1ccc2cc3[n+](cc2c1OCCCOc1ccc(Cl)cc1)CCc1cc2c(cc1-3)OCO2" . Reported MIC?
2

* * *

Provide the reported MIC of each item.
Tested on: antibiotic-susceptible and antibiotic-resistant S. aureus strains
procedure.text: Antimicrobial susceptibility assay, summary over S. aureus strains
Assay type: cell-based
reported.conditions: Staphylococcus aureus

Form: Entry = "COc1ccc2cc3[n+](cc2c1OCCCOc1ccc([N+](=O)[O-])cc1)CCc1cc2c(cc1-3)OCO2" | System = antibiotic-susceptible and antibiotic-resistant S. aureus strains | MIC = ____
2 to 8 µg/mL

Form: Entry = "COc1ccc2cc3[n+](cc2c1OCCCOc1ccc(Cl)cc1)CCc1cc2c(cc1-3)OCO2" | System = antibiotic-susceptible and antibiotic-resistant S. aureus strains | MIC = ____
2 to 8 µg/mL

Form: Entry = "COc1ccc2cc3[n+](cc2c1OCCCCOc1ccccc1)CCc1cc2c(cc1-3)OCO2" | System = antibiotic-susceptible and antibiotic-resistant S. aureus strains | MIC = ____
2 to 8 µg/mL

Form: Entry = "COc1ccc2cc3[n+](cc2c1OCCCOc1ccccc1)CCc1cc2c(cc1-3)OCO2" | System = antibiotic-susceptible and antibiotic-resistant S. aureus strains | MIC = ____
2 to 8 µg/mL
